# experiment.notes: in vivo
# Design: species or system Beagle Dogs
# test.conditions: both sexes, Beagle, dog, po, 22 mg/kg, T1/2 of CH2107 (Molnupiravir)

{"molecule": "CC(C)C(=O)OC[C@H]1O[C@@H](n2ccc(NO)nc2=O)[C@H](O)[C@@H]1O [Molnupiravir]", "half-life (min)": 25.2}

----------
Quick reference for half-life at 1 µM among some molecules
# experiment.notes: in vitro
# Format: in vitro ADME
# test.conditions: dog, plasma
metric: half-life at 1 µM (min)

{"molecule": "O=C(ONc1ccn([C@@H]2O[C@H](CO)[C@@H](O)[C@H]2O)c(=O)n1)C1CC1 [EX-15]", "units.text": "min", "observed.result": 109}
{"molecule": "CC(C)C(=O)ONc1ccn([C@@H]2O[C@H](CO)[C@@H](O)[C@H]2O)c(=O)n1 [EX-3]", "units.text": "min", "observed.result": 21.2}
{"molecule": "CC(C)C(=O)OC[C@H]1O[C@@H](n2ccc(NO)nc2=O)[C@H](O)[C@@H]1O [Molnupiravir]", "units.text": "min", "observed.result": 39.4}
{"molecule": "CC(=O)ONc1ccn([C@@H]2O[C@H](CO)[C@@H](O)[C@H]2O)c(=O)n1 [EX-2]", "units.text": "min", "observed.result": 79.1}
{"molecule": "COC(C)(C)C(=O)ONc1ccn([C@@H]2O[C@H](CO)[C@@H](O)[C@H]2O)c(=O)n1 [EX-53]", "units.text": "min", "observed.result": 156}

----------
Quick reference for log10 half-life at 1 µM among some compounds
# experiment.notes: in vitro
# Format: in vitro ADME
# test.conditions: rat, plasma
metric: log10 half-life at 1 µM (log10 of the value in min)

{"compound": "COC(C)(C)C(=O)ONc1ccn([C@@H]2O[C@H](CO)[C@@H](O)[C@H]2O)c(=O)n1 [EX-53]", "observed.result": 1.97}
{"compound": "CC(C)C(=O)OC[C@H]1O[C@@H](n2ccc(NO)nc2=O)[C@H](O)[C@@H]1O [Molnupiravir]", "observed.result": 0.52}
{"compound": "O=C(ONc1ccn([C@@H]2O[C@H](CO)[C@@H](O)[C@H]2O)c(=O)n1)C1CC1 [EX-15]", "observed.result": 1.95}
{"compound": "CC(=O)ONc1ccn([C@@H]2O[C@H](CO)[C@@H](O)[C@H]2O)c(=O)n1 [EX-2]", "observed.result": 1.94}
{"compound": "CC(C)C(=O)ONc1ccn([C@@H]2O[C@H](CO)[C@@H](O)[C@H]2O)c(=O)n1 [EX-3]", "observed.result": 1.41}

----------
Quick reference for half-life at 1 µM among some molecules
# experiment.notes: in vitro
# Format: in vitro ADME
# test.conditions: human, microsomes, pH 7.4
# Procedure: Preparation of Solutions: Stock solution (10 mM) of each of test compounds was prepared in DMSO. The stock solution for each compound was then diluted into 100 μM with acetonitrile. […]

{"molecule": "CC(C)C(=O)OC[C@H]1O[C@@H](n2ccc(NO)nc2=O)[C@H](O)[C@@H]1O [Molnupiravir]", "units.text": "h", "half-life at 1 µM": 1.19}
{"molecule": "COC(C)(C)C(=O)ONc1ccn([C@@H]2O[C@H](CO)[C@@H](O)[C@H]2O)c(=O)n1 [EX-53]", "units.text": "h", "half-life at 1 µM": 1.44}
{"molecule": "CC(=O)ONc1ccn([C@@H]2O[C@H](CO)[C@@H](O)[C@H]2O)c(=O)n1 [EX-2]", "units.text": "h", "half-life at 1 µM": 0.558}
{"molecule": "O=C(ONc1ccn([C@@H]2O[C@H](CO)[C@@H](O)[C@H]2O)c(=O)n1)C1CC1 [EX-15]", "units.text": "h", "half-life at 1 µM": 1.12}
{"molecule": "CC(C)C(=O)ONc1ccn([C@@H]2O[C@H](CO)[C@@H](O)[C@H]2O)c(=O)n1 [EX-3]", "units.text": "h", "half-life at 1 µM": 0.225}
